target: δOR (Mus musculus, UniProt P32300); construct: FLAG; expressed in transfected cells; host or cells: HEK 293; experiment: GloSensor cAMP inhibition assay (forskolin-induced cAMP) in HEK 293 cells; type: cell-based; details: Table 2, three or more independent trials; read-out: pIC50 ± SEM to inhibit cAMP signaling at δOR (converted)
Sequence (P32300 whole entry): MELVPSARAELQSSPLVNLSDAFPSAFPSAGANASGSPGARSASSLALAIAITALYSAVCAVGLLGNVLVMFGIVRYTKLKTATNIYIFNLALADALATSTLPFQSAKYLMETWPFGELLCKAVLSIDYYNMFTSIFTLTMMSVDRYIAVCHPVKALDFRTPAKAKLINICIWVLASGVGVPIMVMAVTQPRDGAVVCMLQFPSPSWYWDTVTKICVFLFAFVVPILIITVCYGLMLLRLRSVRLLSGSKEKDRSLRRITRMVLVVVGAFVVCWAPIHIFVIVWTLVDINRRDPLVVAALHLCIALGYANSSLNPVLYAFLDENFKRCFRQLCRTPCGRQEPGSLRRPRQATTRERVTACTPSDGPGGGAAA
measurementName: IC50 (µM)
Expressed in µM, but write only the number.

Q) Output measured IC50 for this item: `COc1cccc(/C=N/NC(=O)c2cc(-c3ccc(Cl)s3)n[nH]2)c1O`
A) 7.94

Q) Output measured IC50 for this item: `COc1ccc(/C=N/NC(=O)c2cc(-c3ccc(C)s3)n[nH]2)cc1OC`
A) 3.98

Q) Output measured IC50 for this item: `COc1cccc(C=NNC(=O)c2cc(-c3cccs3)n[nH]2)c1O`
A) 1

Q) Output measured IC50 for this item: `COc1cccc(/C=N/NC(=O)c2cc(-c3ccc(Br)s3)n[nH]2)c1O`
A) 10

Q) Output measured IC50 for this item: `COc1cccc(/C=N/NC(=O)c2cc(-c3cccs3)n[nH]2)c1`
A) 15.8

###

Give IC50 for every item shown.
target: δOR (Mus musculus); construct: FLAG; expressed in transfected cells; host or cells: HEK 293; test: GloSensor cAMP inhibition assay (forskolin-induced cAMP) in HEK 293 cells; type: cell-based; conditions: Table 2, three or more independent trials; read-out: pIC50 ± SEM to inhibit cAMP signaling at δOR (converted)
Expressed in µM, but write only the number.

Q) Output measured IC50 for this item: `O=C(N/N=C/c1ccc(O)c(O)c1)c1cc(-c2cccs2)n[nH]1`
A) 12.6

Q) Output measured IC50 for this item: `CCOc1cccc(/C=N/NC(=O)c2cc(-c3ccc(Cl)s3)n[nH]2)c1O`
A) 7.94

Q) Output measured IC50 for this item: `O=C(N/N=C/c1ccccc1)c1cc(-c2cccs2)n[nH]1`
A) 12.6

Q) Output measured IC50 for this item: `Cc1cccc(/C=N/NC(=O)c2cc(-c3cccs3)n[nH]2)c1`
A) 7.94

Q) Output measured IC50 for this item: `CCOc1cccc(/C=N/NC(=O)c2cc(-c3ccco3)n[nH]2)c1O`
A) 10

Q) Output measured IC50 for this item: `COc1cccc(/C=N/NC(=O)c2cc(-c3ccco3)n[nH]2)c1O`
A) 7.94

Q) Output measured IC50 for this item: `O=C(N/N=C/c1ccc(Cl)cc1)c1cc(-c2cccs2)n[nH]1`
A) 12.6

Q) Output measured IC50 for this item: `COc1cc(/C=N/NC(=O)c2cc(-c3cccs3)n[nH]2)cc(OC)c1OC`
A) 10

Q) Output measured IC50 for this item: `COc1cc(/C=N/NC(=O)c2cc(-c3ccc(C)s3)n[nH]2)ccc1O`
A) 10
